Measured IC50 accompanies every entry in the list below.
- System: Aβtotal
- PROCEDURE SUMMARY: Screening for γ-secretase-modulating activity, Method 1: Aβtotal sandwich ELISA on SKNBE2 cell media
- Format: cell-based
- COND: Homo sapiens; Table 3b; SKNBE2 cells carrying APP 695 wild type; non-linear regression of % of control; averaged IC50 values

Worked examples follow.
Cc1cn(-c2ccc(Nc3cccc4c3nc(-c3ccc(F)cc3)n4C)cc2)cn1; > 3000 nM
COc1cc(Nc2cccc3c2nc(-c2ccc(F)cc2)n3C)ccc1-n1cnc(C)c1; 13500 nM
COc1cc(-c2nc3c(Nc4ccc(-n5cnc(C)n5)c(OC)c4)nccc3n2C)ccc1Cl; > 3000 nM

[in] Look at this compound and give its reported IC50. COc1cc(Nc2cccc3c2nc(-c2ccc(F)cc2F)n3C)ccc1-n1cnc(C)c1
[out] > 3000 nM

[in] Now this one: COc1cc(Nc2cccc3oc(C4CCCCC4)nc23)ccc1-n1cnc(C)c1
[out] > 3000 nM

[in] Now this one: COc1nc(Nc2cccc3c2nc(-c2ccc(F)cc2)n3C)ccc1-n1cnc(C)c1
[out] > 3000 nM

[in] Now this one: COc1cc(Nc2cc(C(C)C)nc3c2nc(-c2ccc(F)cc2)n3C)ccc1-n1cnc(C)n1
[out] 1170 nM

[in] Now this one: Cc1ncnn1-c1ccc(Nc2nccc3c2nc(-c2ccc(F)cc2)n3C(C)C)cc1F
[out] > 10000 nM

[in] Now this one: COc1cc(Nc2cccc3c2nc(-c2ccccc2C)n3Cc2ccccc2)ccc1-n1cnc(C)c1
[out] > 3000 nM

[in] Now this one: Cc1ncn(-c2ccc(Nc3cc(C(F)(F)F)cc4c3nc(-c3ccc(F)cc3)n4C)cn2)n1
[out] > 10000 nM

[in] Now this one: COc1cc(Nc2cccc3oc(-c4ccccc4Cl)nc23)ccc1-n1cnc(C)c1
[out] > 10000 nM

[in] Now this one: COc1cc(Nc2cccc3c2nc(CC2CCN(C)CC2)n3C)ccc1-n1cnc(C)c1
[out] 16600 nM

[in] Now this one: COc1cc(Nc2cccc3c2nc(CC2CCN(C(C)=O)CC2)n3C)ccc1-n1cnc(C)c1
[out] 29500 nM

[in] Now this one: Cc1cn(-c2ccc(Nc3cccc4c3nc(-c3ccc(F)cc3)n4C)nc2)cn1
[out] > 3000 nM

[in] Now this one: COc1cc(Nc2cccc3c2nc(-c2ccc(F)cc2)n3C)ccc1-n1cnc(C)n1
[out] > 3000 nM

[in] Now this one: COCCCc1cc(Nc2ccc(-n3cnc(C)n3)c(OC)c2)c2nc(-c3ccc(F)cc3)n(C)c2n1
[out] > 3000 nM

* * *

- System: Aβtotal
- PROCEDURE SUMMARY: Screening for γ-secretase-modulating activity, Method 2: Aβtotal Alphalisa on SKNBE2 cell supernatant
- Type: cell-based
- COND: Method 2, Table 3c, SKNBE2 cells carrying APP 695 wild type, overnight incubation
- Procedure: Screening was carried out using SKNBE2 cells carrying the APP 695—wild type, grown in Dulbecco's Modified Eagle's Medium/Nutrient mixture F-12 (DMEM/NUT-mix F-12) (HAM) provided by Invitrogen (cat no. 10371-029) containing 5% Serum/Fe supplemented with 1% non-essential amino acids, 1-glutamine 2 mM, Hepes 15 mM, penicillin 50 U/ml (units/ml) en streptomycin 50 μg/ml. […] Aβtotal and Aβ42 concentrations were quantified in the cell supernatant using the Aphalisa technology (Perkin Elmer). […]
pIC50: −log10 of the molar value.
Measured pIC50 accompanies every entry in the list below.

Worked examples follow.
COc1nc(Nc2cccc3c2nc(-c2ccc(F)cc2C)n3C)ccc1-n1cnc(C)c1; < 5.00
COc1cc(Nc2cccc3c2nc(Oc2ccccc2)n3C)ccc1-n1cnc(C)c1; 5.07
Cc1ncn(-c2ccc(Nc3cccc4c3nc(-c3ccc(F)cc3)n4C)cc2)n1; < 5.00
COc1cc(Nc2cccc3c2nc(C)n3Cc2ccccc2)ccc1-n1cnc(C)c1; < 5.00
Cc1cn(-c2ccc(Nc3cccc4c3nc(-c3ccc(F)cc3)n4C)cc2F)cn1; < 5.00

[in] Look at this compound and give its reported pIC50. COc1nc(Nc2cccc3c2nc(-c2ccc(N(C)C)cc2)n3C)ccc1-n1cnc(C)c1
[out] 5.08

[in] Now this one: COc1nc(Nc2cccc3c2nc(-c2ccc(F)c(I)c2)n3C)ccc1-n1cnc(C)c1
[out] < 5.00

[in] Now this one: COc1cc(Nc2cccc3c2nc(C2CCOCC2)n3C(C)C)ccc1-n1cnc(C)n1
[out] < 5.00

[in] Now this one: COc1cc(Nc2cccc3c2nc(C(C)c2ccc(Cl)cc2)n3C)ccc1-n1cnc(C)n1 (racemic)
[out] < 5.00

[in] Now this one: COc1cc(Nc2ccc(-n3cnc(C)c3)c(F)c2)c2nc(-c3ccc(F)cc3)n(C)c2n1
[out] < 5.00

[in] Now this one: COc1nc(Nc2cccc3c2nc(-c2ccccc2)n3C)ccc1-n1cnc(C)c1
[out] 5.07

[in] Now this one: COc1nc(Nc2cccc3c2nc(-c2cc(F)cc(C(F)(F)F)c2)n3C)ccc1-n1cnc(C)c1
[out] 5.34

[in] Now this one: COc1nc(Nc2cccc3c2nc(-c2cccc(F)c2)n3C)ccc1-n1cnc(C)c1
[out] < 5.00

[in] Now this one: COc1cccc(-c2nc3c(Nc4ccc(-n5cnc(C)n5)c(OC)c4)nc(C)cc3n2C)c1
[out] 5.37

[in] Now this one: COc1cc(OC)cc(-c2nc3c(Nc4ccc(-n5cnc(C)c5)c(OC)n4)cccc3n2C)c1.Cl.Cl.O
[out] 5.08

[in] Now this one: COc1cc(Nc2cccc3oc(-c4cccnc4)nc23)ccc1-n1cnc(C)c1
[out] < 5.00

[in] Now this one: COc1ccc(-c2nc3c(Nc4ccc(-n5cnc(C)c5)c(OC)n4)cccc3n2C)c(F)c1
[out] < 5.00

[in] Now this one: COc1cccc(-c2nc3c(Nc4ccc(-n5cnc(C)c5)c(OC)n4)cccc3n2C)c1
[out] 5.05

[in] Now this one: COc1cc(Nc2cc(C3CC3)nc3c2nc(-c2ccc(F)cc2)n3C)ccc1-n1cnc(C)n1
[out] < 5.00

[in] Now this one: Cc1ncn(-c2ccc(Nc3cccc4c3nc(C)n4C(C)C)cc2)n1
[out] < 5.52

[in] Now this one: COc1nc(Nc2ccnc3c2nc(-c2ccc(F)cc2)n3C)ccc1-n1cnc(C)c1
[out] < 5.00

* * *

- Tested on: Aβtotal
- PROCEDURE SUMMARY: Screening for γ-secretase-modulating activity, Method 1: Aβtotal sandwich ELISA on SKNBE2 cell media
- Assay type: cell-based
- COND: Table 3a; SKNBE2 cells carrying APP 695 wild type, 18 hours; XLfit, top/bottom fixed to 100 and 0, hill slope 1
ASSAY READOUT: IC50

Worked examples follow.
COc1cc(Nc2cccc3[nH]c(-c4ccc(F)cc4)nc23)ccc1-n1cnc(C)c1; > 1000 nM
COc1cc(Nc2cccc3c2nc(-c2ccc(F)cc2)n3C)ccc1-n1cnc(C#N)c1; > 3000 nM
COc1cc(Nc2cccc3oc(C4CCN(C(C)=O)CC4)nc23)ccc1-n1cnc(C)c1; > 3000 nM
COc1cc(Nc2cccc3c2nc(Oc2ccccc2)n3C)ccc1-n1cnc(C)c1; > 3000 nM

[in] Look at this compound and give its reported IC50. COc1cc(Nc2cccc3oc(C4CCCC4)nc23)ccc1-n1cnc(C)c1
[out] > 10000 nM

[in] Now this one: COCCn1c(-c2cccc(OC)c2)nc2c(Nc3ccc(-n4cnc(C)c4)c(OC)c3)cccc21.Cl.Cl
[out] > 1000 nM

[in] Now this one: Cc1ncn(-c2ccc(Nc3cccc4c3nc(-c3ccc(F)cc3)n4C)cn2)n1
[out] > 3000 nM

[in] Now this one: Cc1ncn(-c2ccc(Nc3cccc4c3nc(C)n4Cc3ccccc3)cc2)n1
[out] > 10000 nM

[in] Now this one: COc1cc(Nc2cccc3c2nc(-c2ccc(F)cc2)n3C(C)(C)C)ccc1-n1cnc(C)n1
[out] > 3000 nM

[in] Now this one: CCn1c(CC2CC2)nc2c(Nc3ccc(-n4cnc(C)c4)c(OC)c3)cccc21
[out] > 3000 nM

* * *

Measured IC50 accompanies every entry in the list below.
- Tested on: Aβtotal
- PROCEDURE SUMMARY: Screening for γ-secretase-modulating activity, Method 1: Aβtotal sandwich ELISA on SKNBE2 cell media
- Type: cell-based
- COND: Homo sapiens; Table 3a; SKNBE2 cells carrying APP 695 wild type, 18 hours; XLfit, top/bottom fixed to 100 and 0, hill slope 1
- Experimental: Screening was carried out using SKNBE2 cells carrying the APP 695—wild type, grown in Dulbecco's Modified Eagle's Medium/Nutrient mixture F-12 (DMEM/NUT-mix F-12) (HAM) provided by Gibco (cat no. 31330-38) containing 5% Serum/Fe supplemented with 1% non-essential amino acids. Cells were grown to near confluency. […] To quantify the amount of Aβtotal in the cell supernatant, samples and standards were added to a 6E10-coated plate. […]

COc1cc(Nc2cccc3c2nc(-c2ccc(F)cc2)n3C)ccc1-n1cnc(C)n1; > 3000 nM
Cc1ncn(-c2ccc(Nc3cc(C(F)(F)F)cc4c3nc(-c3ccc(F)cc3)n4C)cn2)n1; > 10000 nM
Cc1cn(-c2ccc(Nc3cccc4c3nc(-c3ccc(F)cc3)n4C)nc2)cn1; > 3000 nM
COc1cc(Nc2cccc3c2nc(-c2ccc(F)cc2F)n3C)ccc1-n1cnc(C)c1; > 1000 nM
COc1cc(Nc2cccc3c2nc(N2CCC(F)(F)CC2)n3C)ccc1-n1cnc(C)c1; > 3000 nM

[in] Look at this molecule and give its reported IC50. COc1cc(Nc2cccc3oc(CC(C)C)nc23)ccc1-n1cnc(C)c1
[out] > 5000 nM

[in] Now this one: COc1cc(Nc2cccc3[nH]c(-c4ccccc4C)nc23)ccc1-n1cnc(C)c1
[out] > 1000 nM
